System: NCI-H2126
Experiment: relative viability (nuclei count vs DMSO), 5 days (fraction); higher = more cells survive
Settings: first compound 0.04 µM
ENDPOINT: relative viability
Give only the figure.

MOLECULE: Cc1sc2c(c1C)C(c1ccc(Cl)cc1)=N[C@@H](CC(=O)OC(C)(C)C)c1nnc(C)n1-2 [JQ1] + CC(=O)c1c(C)c2cnc(Nc3ccc(N4CCNCC4)cn3)nc2n(C2CCCC2)c1=O [Palbociclib] (partner 0.5 µM)
VAL: 0.345

The molecule Cc1sc2c(c1C)C(c1ccc(Cl)cc1)=N[C@@H](CC(=O)OC(C)(C)C)c1nnc(C)n1-2 [JQ1] + CCNC(=O)c1noc(-c2cc(C(C)C)c(O)cc2O)c1-c1ccc(CN2CCOCC2)cc1 [Luminespib] (partner 0.01 µM) showed relative viability equal to 0.968

The molecule Cc1sc2c(c1C)C(c1ccc(Cl)cc1)=N[C@@H](CC(=O)OC(C)(C)C)c1nnc(C)n1-2 [JQ1] + O=C(CCCCCCC(=O)Nc1ccccc1)NO [Vorinostat] (partner 1 µM) showed relative viability equal to 0.725

The molecule Cc1sc2c(c1C)C(c1ccc(Cl)cc1)=N[C@@H](CC(=O)OC(C)(C)C)c1nnc(C)n1-2 [JQ1] + CS(=O)(=O)N1CCN(Cc2cc3nc(-c4cccc5[nH]ncc45)nc(N4CCOCC4)c3s2)CC1 [Pictilisib] (partner 1 µM) showed relative viability equal to 0.484
